The listing below reports Bscl2-GFP/Srxn1-GFP Prim. toxic properties for compounds tested on Bscl2-GFP and Srxn1-GFP mES reporter cells.

Field: example entries. Status: answers known.
>>> value_measured("CC(=O)O[C@H]1C(=O)[C@@]2(C)[C@H]([C@H](OC(=O)c3ccccc3)[C@]3(O)C[C@H](OC(=O)[C@H](O)[C@@H](NC(=O)c4ccccc4)c4ccccc4)C(C)=C1C3(C)C)[C@]1(OC(C)=O)CO[C@@H]1C[C@@H]2O [Taxol]")
"Genotoxin"
>>> value_measured("O=S(=O)([O-])[O-].[Cu+2] [Copper sulfate]")
"Pro-oxidant"
>>> value_measured("Nc1ccn([C@@H]2O[C@H](CO)[C@@H](O)[C@@H]2O)c(=O)n1 [Cytarabine]")
"Genotoxin"
>>> value_measured("CCCOC(=O)c1cc(O)c(O)c(O)c1 [Propyl gallate]")
"Equivocal"

Would you mind giving Bscl2-GFP/Srxn1-GFP Prim. toxic properties for every compound in the list below?
1. Oc1ccc(Cl)cc1Cl [2,4-dichlorophenol]
2. Cc1noc(NS(=O)(=O)c2ccc(N)cc2)c1C [Sulfisoxazole]
3. OO [Hydrogen peroxide]

OUT:
1: Pro-oxidant; 2: Pro-oxidant; 3: Pro-oxidant

---

Tested on: Bscl2-GFP and Srxn1-GFP mES reporter cells
setup conditions: from which GFP reporter is induced
parameter: Bscl2-GFP/Srxn1-GFP Prim. toxic properties

Field: example entries. Status: answers known.
>>> value_measured("CC[C@@]1(O)C(=O)OCc2c1cc1n(c2=O)Cc2cc3ccccc3nc2-1")
"Genotoxin"
>>> value_measured("COS(C)(=O)=O [MMS, methyl methanesulphonate]")
"Pro-oxidant"
>>> value_measured("O=[N+]([O-])c1cc[n+]([O-])c2ccccc12 [4-Nitroquinelone-1-oxide]")
"Genotoxin"
>>> value_measured("[Cl][Cd][Cl] [Cadmium Chloride]")
"Pro-oxidant"

We now examine a further compound.
IN: Consider the compound O=[As]O [Sodium arsenite] and give its recorded Bscl2-GFP/Srxn1-GFP Prim. toxic properties.
OUT: Pro-oxidant

---

The listing below reports Bscl2-GFP/Srxn1-GFP Prim. toxic properties for compounds tested on Bscl2-GFP and Srxn1-GFP mES reporter cells.
Counter-ions that a name gives are not always drawn.

>>> value_measured("CCOC(=O)/C=C\\C(=O)OCC [Diethyl maleate]")
"Pro-oxidant"
>>> value_measured("CCCCCC(O)C=CC=O (stereo not shown) [4-Hydroxy-2-nonenal]")
"Pro-oxidant"
>>> value_measured("COc1cc([C@@H]2c3cc4c(cc3[C@@H](O[C@@H]3O[C@@H]5CO[C@@H](C)O[C@H]5[C@H](O)[C@H]3O)[C@H]3COC(=O)[C@H]23)OCO4)cc(OC)c1O [Etoposide]")
"Genotoxin"
>>> value_measured("O=[N+]([O-])c1ccc(O)cc1")
"Pro-oxidant"

Would you mind giving Bscl2-GFP/Srxn1-GFP Prim. toxic properties for every compound in the list below?
1. CC(C)(C)c1cc(O)ccc1O [Tert-butylhydroquinone]
2. COc1cccc2c1C(=O)c1c(O)c3c(c(O)c1C2=O)C[C@@](O)(C(=O)CO)C[C@@H]3O[C@H]1C[C@H](N)[C@H](O)[C@H](C)O1

OUT:
["Pro-oxidant", "Genotoxin"]
